Provide the recorded inhibition for the entries that follow.
# method.notes: H1N1 influenza NS1A inhibitors, functional cell based assay (AID 504329)
# experimental.setup: percent inhibition, at 12.5 µM, hits give high values
In all, about 340,000 compounds went through this assay and about 1,000 (0.29%) were called active. The list is a sample of the results. Potency and affinity values are given separately.
Note: unit % is implicit; provide only the numeric part.

Query: So what does the record say about inhibition for COc1cc(-c2cc(=O)c3ccccc3o2)ccc1O ?
Response: -19

Query: And what about the compound O=C(Cc1c(F)cccc1Cl)Nc1ccccn1 ?
Response: -10.5

Query: // repeat for Cc1ccc(S(=O)(=O)CCC(=O)Nc2nc(-c3ccccn3)cs2)cc1 and report
Response: 7.88

Query: Continue with CCn1ncc(Br)c1C(=O)Nc1nccs1
Response: 8

Query: Next compound up: O=C(O)c1ccccc1C(=O)c1ccc(F)c(F)c1
Response: 3.3

Query: Next compound up: COc1c(O)cc2oc(-c3ccc(O)c(O)c3)cc(=O)c2c1O
Response: 2.55

Query: What about this compound? O=C(CCN1C(=O)c2ccccc2C1=O)NCc1ccccc1
Response: 5.94

Query: Entry to check: CC(C)CN(C(=O)c1ccc(=O)n(C)n1)c1c(N)n(Cc2ccccc2)c(=O)[nH]c1=O
Response: -3.79

Query: Record: COc1ccc(/C=C/c2ccc3ccccc3[n+]2C)cc1OC
Response: -10.2

Query: Please do the same for N#CC(Cc1ccccc1)(Cc1ccccc1)C(=O)NN as well.
Response: -3.45

Query: Cool, now Nc1nc(N)c(Cc2ccc(Cl)cc2Cl)c(N)n1
Response: -5.28

Query: Further, for CCCC(=O)Nc1nnc(S(=O)(=O)N(CC(C)C)c2ccccc2)s1 ?
Response: -2.29

Query: And for O=C(NCCNC(=O)c1ccccn1)c1ccc(F)cc1 ?
Response: 4.55

Query: And for Cc1cccc(NC(=O)Cn2c(O)c(N=NC(=O)c3ccncc3)c3ccccc32)c1 ?
Response: -15.6

Query: Let us now turn to COc1ccc(OC)c(-c2oc3ccccc3c(=O)c2O)c1
Response: -8.28

Query: Also check COc1ccc2c(=O)cc(-c3ccccc3F)oc2c1
Response: -4.71

Query: Moving on to O=C(COC(=O)c1ccc(Br)c(S(=O)(=O)N2CCOCC2)c1)NC1CC1
Response: -5.17

Query: Also need Cc1nc(N)c(Cc2ccccc2F)c(N)n1 , thanks.
Response: -3.84

Query: Next: O=C(CCS(=O)(=O)c1ccc(F)cc1)Nc1nc(-c2ccncc2)cs1
Response: -5.43

###

# method.notes: H1N1 influenza NS1A inhibitors, functional cell based assay (AID 504329)
# experimental.setup: percent inhibition, at 12.5 µM, hits give high values
About 1,000 (0.29%) of roughly 340,000 compounds were called active. Only a sample is shown. Potency and affinity values are given separately.
Would you mind telling me the reported inhibition of each entry?
Express it in %; write the number only.

Query: // query inhibition value for entry COc1cc(/C=N/NC(=O)c2ccncc2)c([N+](=O)[O-])cc1OC
Response: -2.25

Query: Repeat with O=C(OCc1ccccc1F)c1cc([N+](=O)[O-])ccc1N1CCOCC1
Response: 12.7

Query: COc1ccc(NC(=O)CSc2nnc3ccc(-c4cccnc4)nn23)cc1OC ?
Response: -19.3

Query: Cool, now CC(C)CC(OC(=O)c1cccs1)C(=O)NCC1CCCO1 (centres undefined)
Response: 11.2
